Ref: patent US20240116985A1

I'd be grateful if you could share measured NanoBRET Abs IC50 for these entries.
TARGET SYSTEM: T1, B-cat-Halo (UniProt P35222 1-781)
T1 sequence (looked up): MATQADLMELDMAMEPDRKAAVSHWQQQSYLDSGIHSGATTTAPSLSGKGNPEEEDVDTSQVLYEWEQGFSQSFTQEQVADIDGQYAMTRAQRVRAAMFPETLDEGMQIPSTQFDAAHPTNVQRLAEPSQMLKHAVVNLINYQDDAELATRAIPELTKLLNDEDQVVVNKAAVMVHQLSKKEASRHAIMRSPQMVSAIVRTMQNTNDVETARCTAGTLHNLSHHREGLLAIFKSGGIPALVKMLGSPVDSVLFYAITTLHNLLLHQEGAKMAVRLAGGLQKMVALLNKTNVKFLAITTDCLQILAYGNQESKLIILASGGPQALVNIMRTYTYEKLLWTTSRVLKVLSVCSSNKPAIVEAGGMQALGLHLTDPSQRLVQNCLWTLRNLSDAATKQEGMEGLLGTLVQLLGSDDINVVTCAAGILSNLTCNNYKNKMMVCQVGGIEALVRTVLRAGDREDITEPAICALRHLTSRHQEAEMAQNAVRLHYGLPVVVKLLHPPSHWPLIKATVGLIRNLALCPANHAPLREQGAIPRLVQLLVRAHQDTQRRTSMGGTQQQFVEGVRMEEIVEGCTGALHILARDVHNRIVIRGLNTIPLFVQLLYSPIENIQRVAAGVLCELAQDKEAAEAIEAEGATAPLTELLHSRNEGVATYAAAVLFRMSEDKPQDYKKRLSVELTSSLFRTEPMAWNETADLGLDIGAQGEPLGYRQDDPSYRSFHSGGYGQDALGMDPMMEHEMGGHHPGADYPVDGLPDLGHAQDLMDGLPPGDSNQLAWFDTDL
ASSAY SUMMARY: cell-based or functional assay
Starred links: 1 amine or outer side, 2 acyl side, 3 side chain; linkers in the order of their positions; H or OH if unused. Positions of bridges follow the written chain, without caps; N, C: chain ends. Non-standard residues stand in square brackets, D forms with d. Primed or numbered codes have the meaning given here. No end group written: not given here. PyrS2″ = (S)-3-amino-1-((pent-4-en-1-yloxy)carbonyl)pyrrolidine-3-carboxylic acid (stapling residue), C=CCCCOC(=O)N1CC[C@@](N[*:1])(C(=O)[*:2])C1; B5(4) = 2,2-bis(4-pentenyl)glycine = 2-amino-2-(pent-4-en-1-yl)hept-6-enoic acid (stitching residue), C=CCCCC(CCCC=C)(N[*:1])C(=O)[*:2]; PyrS2 = (S)-3-amino-1-((pent-4-en-1-yloxy)carbonyl)pyrrolidine-3-carboxylic acid, C=CCCCOC(=O)N1CC[C@@](N[*:1])(C(=O)[*:2])C1; B5 = 2-amino-2-(pent-4-en-1-yl)hept-6-enoic acid, C=CCCCC(CCCC=C)(N[*:1])C(=O)[*:2]; Phe(2-Br) = N[C@@H](Cc1ccccc1Br)C(=O)O; Phe(2-Cl) = N[C@@H](Cc1ccccc1Cl)C(=O)O; Phe(2-F) = N[C@@H](Cc1ccccc1F)C(=O)O; Bta = N[C@@H](Cc1csc2ccccc12)C(=O)O; αAllylPro = C=CC[C@@]1(C(=O)O)CCCN1; tBuAla = CC(C)(C)C[C@H](N)C(=O)O; Cha = N[C@@H](CC1CCCCC1)C(=O)O; Thr(ol) = C[C@@H](O)[C@H](N)CO
Write down the numeric answer in µM and omit the unit.

Task item: State the recorded NanoBRET Abs IC50 for this entry: Ac-[αAllylPro]D[Cha][B5(4)]DDAAFT[PyrS2″][Phe(2-Cl)][Bta][Thr(ol)] (staple 1-4, 4-11) [I-1312]
Reply: 16.1

Task item: Proceed to [αAllylPro]D[tBuAla][B5(4)]DDAAFF[PyrS2″][Phe(2-Br)][Bta]Q-NH2 (staple 1-4, 4-11) [I-1325]
Reply: 5.7

Task item: Field entry: Ac-[αAllylPro]D[tBuAla][B5(4)]DDAAFN[PyrS2″][Phe(2-Br)][Bta]Q-NH2 (staple 1-4, 4-11) [I-1323]
Reply: 11.7

Task item: Try this binder next: Ac-[αAllylPro]D[tBuAla][B5(4)]DDAAFL[PyrS2″][Phe(2-F)][Bta]Q-NH2 (staple 1-4, 4-11) [I-1321]
Reply: 10.9

Task item: # iterate: [αAllylPro]D[tBuAla][B5]DDAAFN[PyrS2][Cha][Bta]Q-NH2 (staple 1-4, 4-11) [I-1329]
Reply: 35
